# System Tested: UniProtKB P56817
# Sequence (P56817 46-457): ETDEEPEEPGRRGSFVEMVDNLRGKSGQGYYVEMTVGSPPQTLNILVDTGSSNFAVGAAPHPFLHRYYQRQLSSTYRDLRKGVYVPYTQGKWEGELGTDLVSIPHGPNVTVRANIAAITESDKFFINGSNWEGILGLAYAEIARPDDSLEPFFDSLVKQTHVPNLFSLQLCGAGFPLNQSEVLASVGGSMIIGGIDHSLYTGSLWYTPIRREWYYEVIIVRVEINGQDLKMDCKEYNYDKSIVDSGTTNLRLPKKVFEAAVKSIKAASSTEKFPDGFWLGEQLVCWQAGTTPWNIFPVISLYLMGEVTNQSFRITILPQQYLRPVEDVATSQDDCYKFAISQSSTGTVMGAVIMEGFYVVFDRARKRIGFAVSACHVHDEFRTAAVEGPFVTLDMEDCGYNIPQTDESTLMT
# Assay Summary: BACE1 Cell-Free Assay (fluorescence polarization)
# Format: biochemical
# Protocol Conditions: geometric mean of 2-4 determinations unless otherwise indicated (b: ≧5; c: single determination); read-out: BACE1 Cell-free Assay IC50
# Description: This assay measures the inhibition of the beta-secretase enzyme as it cleaves a non-native peptide. A synthetic APP substrate that can be cleaved by beta-secretase having N-terminal biotin and made fluorescent by the covalent attachment of Oregon Green at the Cys residue is used to assay beta-secretase activity in the presence or absence of the inhibitory compounds. […]
pIC50: −log10 of the molar value.
Readout Type: pIC50

C[C@H]1C[C@H]2CSC(N)=N[C@@]2(c2nc(NC(=O)c3ncc(F)cc3F)cs2)CO1; 6.82
C[C@H]1C[C@H]2CSC(N)=N[C@@]2(c2nc(NC(=O)c3nc(C(F)F)co3)cs2)CO1; 7.12
C[C@H]1C[C@H]2CSC(N)=N[C@@]2(c2nc(NC(=O)c3cnc(OC(F)F)cn3)cs2)CO1; 7.14

[1] C#CCn1ccc(C(=O)Nc2csc([C@]34CO[C@@H](C)C[C@H]3CSC(N)=N4)n2)n1
[2] Cc1nc(C(=O)Nc2csc([C@]34CO[C@@H](C)C[C@H]3CSC(N)=N4)n2)no1
input: Returns the identifier with the smallest measured pIC50 among 1 and 2 . Answer with the label corresponding to your selection.
output: 2
